target: UniProt:P51532; assay: ATPase catalytic activity assay of BRG-1 (ADP-Glo); format: biochemical; conditions: ATPase catalytic activity, ADP-Glo; read-out: BRG1 IC50 (μM)*
Sequence (P51532 whole entry): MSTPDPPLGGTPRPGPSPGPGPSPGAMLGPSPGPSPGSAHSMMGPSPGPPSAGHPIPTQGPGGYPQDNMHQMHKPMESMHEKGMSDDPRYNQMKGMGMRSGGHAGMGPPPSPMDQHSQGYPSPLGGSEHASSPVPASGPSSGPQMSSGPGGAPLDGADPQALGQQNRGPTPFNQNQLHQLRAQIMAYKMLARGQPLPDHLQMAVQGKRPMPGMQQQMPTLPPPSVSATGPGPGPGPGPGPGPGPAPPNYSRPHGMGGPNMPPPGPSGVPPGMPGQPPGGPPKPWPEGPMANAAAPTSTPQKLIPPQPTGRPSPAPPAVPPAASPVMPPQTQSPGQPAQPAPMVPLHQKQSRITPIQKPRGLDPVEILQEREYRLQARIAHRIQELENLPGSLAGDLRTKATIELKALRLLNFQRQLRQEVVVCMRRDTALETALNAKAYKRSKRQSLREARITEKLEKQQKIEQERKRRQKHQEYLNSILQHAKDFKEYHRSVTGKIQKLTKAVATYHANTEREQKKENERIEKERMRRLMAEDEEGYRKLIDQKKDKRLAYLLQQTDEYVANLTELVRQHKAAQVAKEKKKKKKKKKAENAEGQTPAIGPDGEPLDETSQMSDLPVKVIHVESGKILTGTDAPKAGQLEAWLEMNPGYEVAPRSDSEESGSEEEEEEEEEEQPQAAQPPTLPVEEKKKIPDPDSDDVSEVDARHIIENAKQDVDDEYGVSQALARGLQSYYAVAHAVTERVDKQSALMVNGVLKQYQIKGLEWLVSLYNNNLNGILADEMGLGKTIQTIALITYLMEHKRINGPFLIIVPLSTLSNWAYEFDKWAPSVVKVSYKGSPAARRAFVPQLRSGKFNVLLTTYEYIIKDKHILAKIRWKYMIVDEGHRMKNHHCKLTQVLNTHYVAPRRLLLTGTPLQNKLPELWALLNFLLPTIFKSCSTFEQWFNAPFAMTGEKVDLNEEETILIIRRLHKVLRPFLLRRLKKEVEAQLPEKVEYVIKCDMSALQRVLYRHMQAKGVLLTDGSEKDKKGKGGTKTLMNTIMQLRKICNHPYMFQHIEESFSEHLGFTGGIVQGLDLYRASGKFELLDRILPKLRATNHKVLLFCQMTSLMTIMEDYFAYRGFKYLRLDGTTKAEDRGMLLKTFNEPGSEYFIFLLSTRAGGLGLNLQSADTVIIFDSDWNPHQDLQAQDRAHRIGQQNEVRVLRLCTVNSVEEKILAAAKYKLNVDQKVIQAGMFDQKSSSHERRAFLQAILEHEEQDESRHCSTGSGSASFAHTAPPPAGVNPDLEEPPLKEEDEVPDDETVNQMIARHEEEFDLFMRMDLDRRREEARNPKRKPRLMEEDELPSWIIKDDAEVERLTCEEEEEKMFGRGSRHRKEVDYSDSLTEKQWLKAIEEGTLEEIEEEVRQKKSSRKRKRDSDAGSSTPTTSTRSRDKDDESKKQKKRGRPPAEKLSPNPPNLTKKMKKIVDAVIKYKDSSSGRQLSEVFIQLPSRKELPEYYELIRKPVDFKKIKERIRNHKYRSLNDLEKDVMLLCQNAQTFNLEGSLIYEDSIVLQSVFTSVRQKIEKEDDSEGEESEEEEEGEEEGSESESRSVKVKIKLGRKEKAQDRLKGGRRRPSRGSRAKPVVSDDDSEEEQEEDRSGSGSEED
Listed next: entries and their corresponding IC50.

{"columns": ["compound", "property_name", "val"],
 "data": [
  ["Cn1ncc(-c2cccc(-c3csc(NC(=O)CNC(=O)c4cccc(C(C)(C)CO)c4)n3)n2)n1 [Compound 154]", "IC50", "1 to 5 µM"],
  ["CC1(c2cccc(C(=O)NCC(=O)Nc3nc(-c4cccc(-c5ccncc5)c4)cs3)c2)CCNC1=O (centres unmarked) [Compound 82]", "IC50", "0.1 to 1 µM"],
  ["Cc1cc(-c2cccc(-c3csc(NC(=O)CNC(=O)c4ccc5c(c4)[C@@](C)(CO)CCC5)n3)c2)cc(C)n1 [Compound 231]", "IC50", "0.1 to 1 µM"]
]}

Record for Cc1nccc(-c2cccc(-c3csc(NC(=O)CNC(=O)c4ccc5c(c4)[C@@](C)(C#N)CC5)n3)n2)n1 [Compound 268] under target or system UniProt:P51532: IC50 reported as 1 to 5 µM

Record for CC1(CO)CCc2ccc(C(=O)NCC(=O)Nc3nc(-c4cccc(-c5cccc(C#N)c5)c4)cs3)cc21 (centres unmarked) [Compound 233] under target or system UniProt:P51532: IC50 reported as 0.1 to 1 µM
